targetOfAssay: UniProt:Q14832
Sequence (Q14832 23-879 limits assumed): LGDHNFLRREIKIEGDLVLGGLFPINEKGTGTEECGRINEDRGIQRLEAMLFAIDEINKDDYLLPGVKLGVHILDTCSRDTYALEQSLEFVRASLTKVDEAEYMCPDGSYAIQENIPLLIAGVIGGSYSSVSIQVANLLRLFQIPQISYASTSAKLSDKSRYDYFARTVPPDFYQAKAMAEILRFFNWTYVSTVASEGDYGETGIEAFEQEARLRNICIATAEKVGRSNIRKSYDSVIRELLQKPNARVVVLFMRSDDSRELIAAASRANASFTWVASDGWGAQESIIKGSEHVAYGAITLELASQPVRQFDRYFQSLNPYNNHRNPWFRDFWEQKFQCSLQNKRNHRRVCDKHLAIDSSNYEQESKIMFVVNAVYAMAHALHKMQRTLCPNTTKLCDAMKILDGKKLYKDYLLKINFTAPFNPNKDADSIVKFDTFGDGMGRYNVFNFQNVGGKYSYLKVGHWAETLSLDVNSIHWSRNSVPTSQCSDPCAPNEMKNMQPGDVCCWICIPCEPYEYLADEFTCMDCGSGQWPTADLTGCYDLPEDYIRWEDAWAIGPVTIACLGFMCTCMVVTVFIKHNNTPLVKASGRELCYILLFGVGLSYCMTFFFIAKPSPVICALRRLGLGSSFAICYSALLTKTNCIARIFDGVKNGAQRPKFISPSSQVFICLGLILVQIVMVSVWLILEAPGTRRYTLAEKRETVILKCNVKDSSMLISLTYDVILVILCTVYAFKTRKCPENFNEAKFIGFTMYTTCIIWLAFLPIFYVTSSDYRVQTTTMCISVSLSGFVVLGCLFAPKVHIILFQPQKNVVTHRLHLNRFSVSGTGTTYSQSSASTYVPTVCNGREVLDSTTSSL
assayInfo: Negative allosteric modulation of mGlu3 assessed as inhibition of glutamate-induced thallium flux through GIRK channels by cell-based assay
Parameters: concentration or dose not given beside the values
conditionDetails: concentration not given here
observedProperty: inhibition (%)
Supply the numeric figure in %, leaving out any unit text.

Just so you know, measured inhibition for COc1ccc(C#Cc2ccc(C(=O)N3CCCC(CO)C3)cc2)cc1 (racemic) came out at 0.5

Just so you know, measured inhibition for COc1ccc(C#Cc2ccc(C(=O)N3CCC(O)CC3)cc2)cc1 came out at 10.4

Just so you know, measured inhibition for COc1ccc(C#Cc2ccc(C(=O)N3CCC[C@@H](CO)C3)cc2)cc1 came out at -4.4

Just so you know, measured inhibition for COc1ccc(C#Cc2ccc(C(=O)N3CCCC(O)C3)cc2)cc1 (stereo not given) came out at -1.1

Just so you know, measured inhibition for COc1ccc(C#Cc2ccc(C(=O)N3CCC[C@@H](C(=O)O)C3)cc2)cc1 came out at 16.4
